# Target Or System: Gal(b1-4)GlcNAc(b1-6)Gal(b1-4)GlcNAc(b1-6)GalNAc
# Experiment: glycan array binding signal (z-score within array); higher = stronger binding
# Condition Set: glycan notation: IUPAC condensed, linker removed
About 410 targets per protein were measured; listed, in parts, are those with the strongest signals and a random draw of the rest.
glycan array binding signal (z-score) values for the binders below.
Simply state the number, no unit and no words.

Examples with their reported glycan array binding signal (z-score) follow.
| Binder | Observed Value |
| --- | --- |
| LKPARMA (Neurospora crassa) (protein) MSFHVTAEDARRIEVRDNRTILFARLRREDGEWNDASYELDQIIGNNDGHFQWGGGQNFTETAEDIRFHPKEGAAEQPILRARLRDCNGEFHDRDVNLTEIVENVNGEFQAKF | -0.252 |
| ECA (Erythrina cristagalli), P83410 (protein) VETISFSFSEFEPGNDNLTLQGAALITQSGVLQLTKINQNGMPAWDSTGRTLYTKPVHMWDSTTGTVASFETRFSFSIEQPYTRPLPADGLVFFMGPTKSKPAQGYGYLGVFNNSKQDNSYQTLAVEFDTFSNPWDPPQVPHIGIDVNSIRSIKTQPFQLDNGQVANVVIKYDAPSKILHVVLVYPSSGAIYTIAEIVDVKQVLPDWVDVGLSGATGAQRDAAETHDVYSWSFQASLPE | 5.39 |
| HHA (Hippeastrum hybrid) (protein) MQQDCNLVLYDVDKPIWASNTGGLARDCHLNMQSDGNLVVYAPRNQVIWASNTQGENGNYVCILQKDRNVVIYGTARWATGTNIHGAGIVGVPGSAPQNTTAEMIKLVRKYLITK | -0.191 |
| HHL-1 (Homo sapiens), P07306 (protein) TKEYQDLQHLDNEESDHHQLRKGPPPPQPLLQRLCSGPRLLLLSLGLSLLLLVVVCVIGSQNSQLQEELRGLRETFSNFTASTEAQVKGLSTQGGNVGRKMKSLESQLEKQQKDLSEDHSSLLLHVKQFVSDLRSLSCQMAALQGNGSERTCCPVNWVEHERSCYWFSRSGKAWADADNYCRLEDAHLVVVTSWEEQKFVQHHIGPVNTWMGLHDQNGPWKWVDGTDYETGFKNWRPEQPDDWYGHGLGGGEDCAHFTDDGRWNDDVCQRPYRWVCETELDKASQEPPLL | 0.262 |
| MGL6A (Homo sapiens) (protein) MTRTYENFQYLENKVKVQGFKNGPLPLQSLLQRLCSGPCHLLLSLGLGLLLLVIICVVGFQNSKFQRDLVTLRTDFSNFTSNTVAEIQALTSQGSSLEETIASLKAEVEGFKQERQAVHSEMLLRVQQLVQDLKKLTCQVATLNNNGEEASTEGTCCPVNWVEHQDSCYWFSHSGMSWAEAEKYCQLKNAHLVVINSREEQNFVQKYLGSAYTWMGLSDPEGAWKWVDGTDYATGFQNWKPGQPDDWQGHGLGGGEDCAHFHPDGRWNDDVCQRPYHWVCEAGLGQTSQESH | -0.256 |

query: Item Mindin (Homo sapiens), Q9BUD6 (protein) MENPSPAAALGKALCALLLATLGAAGQPLGGESICSARALAKYSITFTGKWSQTAFPKQYPLFRPPAQWSSLLGAAHSSDYSMWRKNQYVSNGLRDFAERGEAWALMKEIEAAGEALQSVHEVFSAPAVPSGTGQTSAELEVQRRHSLVSFVVRIVPSPDWFVGVDSLDLCDGDRWREQAALDLYPYDAGTDSGFTFSSPNFATIPQDTVTEITSSSPSHPANSFYYPRLKALPPIARVTLVRLRQSPRAFIPPAPVLPSRDNEIVDSASVPETPLDCEVSLWSSWGLCGGHCGRLGTKSRTRYVRVQPANNGSPCPELEEEAECVPDNCV has what recorded glycan array binding signal (z-score)?
result: -0.238

query: And then S100A12 (Homo sapiens), P80511 (protein) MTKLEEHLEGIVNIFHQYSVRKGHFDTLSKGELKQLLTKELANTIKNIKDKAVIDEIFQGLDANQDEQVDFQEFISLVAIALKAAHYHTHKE , what is it?
result: -0.768
